System: A/Roma-ISS/02/08 H1N1
experimental-parameters: A/Roma-ISS/02/08 H1N1; MDCK cells; CC50 >25 μM
Residues, ends and D or L forms follow the SMILES beside them.
attribute-measured: SI (CC50/EC50)

molecule	attribute-measured	measured-value
CC(C)C[C@H](NC(=O)CNC(=O)[C@H](CCC(=O)O)NC(=O)[C@H](CC(N)=O)NC(=O)[C@H](C)NC(=O)[C@@H](N)CCCCN)C(=O)N[C@H](C(=O)N[C@@H](Cc1c[nH]c2ccccc12)C(=O)N[C@@H](CC(N)=O)C(=O)N[C@@H](CO)C(=O)N[C@@H](CC(C)C)C(=O)N[C@@H](CCCCN)C(=O)N[C@@H](CC(=O)O)C(=O)N[C@@H](CCCCN)C(=O)O)[C@@H](C)O [Peptide 4, KANEGLTWNSLKDK] (H-KANEGLTWNSLKDK-OH)	SI (CC50/EC50)	>2.5.10^7

Query CC(=O)N[C@@H](CO)C(=O)N[C@@H](CC(C)C)C(=O)N[C@@H](CC(=O)O)C(=O)N[C@@H](CS)C(N)=O [Peptide 15, SLDC] (Ac-SLDC-NH2) yields SI (CC50/EC50) of >5.10^7

Query CC(C)C[C@H](NC(=O)[C@H](CO)NC(=O)[C@H](CO)NC(=O)[C@H](Cc1c[nH]cn1)NC(=O)[C@H](CCCCN)NC(=O)[C@@H](N)CO)C(=O)N[C@@H](CC(=O)O)C(=O)N[C@@H](CS)C(=O)O [Peptide 16, SKHSSLDC] (H-SKHSSLDC-OH; N-terminus and C-terminus assumed) yields SI (CC50/EC50) of >3.125.10^5

The origin of these recorded values is paper PMC5587682.
